- Experimental target: HLA-A*02:01
- Measurement protocol: IEDB peptide-MHC binding, purified MHC/competitive/radioactivity; filed as Kd, often an IC50 or EC50 that approximates it; bounds were set here for any values at or beyond the usual limits of such assays
- Run parameters: source organism: Trypanosoma cruzi
Quantity: Kd

sequence_text=WVFPESISPV quantity=Kd value="109 nM"
sequence_text=VLAKDGTEV quantity=Kd value="67 nM"
sequence_text=IVMGNGTLV quantity=Kd value="998 nM"
sequence_text=FVNHDFTVV quantity=Kd value="300 nM"
sequence_text=MLQDGNKGSV quantity=Kd value="840 nM"
sequence_text=IAGGVMAVV quantity=Kd value="196 nM"
sequence_text=PLLLLGLWGL quantity=Kd value="643 nM"
sequence_text=GIRPYEILA quantity=Kd value="33 nM"
sequence_text=LLLGLWGFAA quantity=Kd value="534 nM"
sequence_text=VLLPSLFLLL quantity=Kd value="99 nM"
sequence_text=LLYSDDALHL quantity=Kd value="317 nM"
sequence_text=LLLLGLWGL quantity=Kd value="22 nM"
sequence_text=FVDYNFTIV quantity=Kd value="240 nM"
sequence_text=LLGLWGLTGL quantity=Kd value="1.3 nM"
sequence_text=LLPSLFLLL quantity=Kd value="125 nM"
sequence_text=SVYVDAKLV quantity=Kd value="102 nM"
sequence_text=FLLLGLWGFA quantity=Kd value="207 nM"
sequence_text=FLYNRPLSV quantity=Kd value="146 nM"
sequence_text=KLFPEVIDL quantity=Kd value="203 nM"
sequence_text=VLLPSLFLL quantity=Kd value="36 nM"
